Reference for the values: the supplement of paper PMC3545927

Target: furin, P09958;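 note: purified furin at 1:10 enzyme:substrate in 50 mM HEPES pH 7.5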
Sequence (P09958 whole entry): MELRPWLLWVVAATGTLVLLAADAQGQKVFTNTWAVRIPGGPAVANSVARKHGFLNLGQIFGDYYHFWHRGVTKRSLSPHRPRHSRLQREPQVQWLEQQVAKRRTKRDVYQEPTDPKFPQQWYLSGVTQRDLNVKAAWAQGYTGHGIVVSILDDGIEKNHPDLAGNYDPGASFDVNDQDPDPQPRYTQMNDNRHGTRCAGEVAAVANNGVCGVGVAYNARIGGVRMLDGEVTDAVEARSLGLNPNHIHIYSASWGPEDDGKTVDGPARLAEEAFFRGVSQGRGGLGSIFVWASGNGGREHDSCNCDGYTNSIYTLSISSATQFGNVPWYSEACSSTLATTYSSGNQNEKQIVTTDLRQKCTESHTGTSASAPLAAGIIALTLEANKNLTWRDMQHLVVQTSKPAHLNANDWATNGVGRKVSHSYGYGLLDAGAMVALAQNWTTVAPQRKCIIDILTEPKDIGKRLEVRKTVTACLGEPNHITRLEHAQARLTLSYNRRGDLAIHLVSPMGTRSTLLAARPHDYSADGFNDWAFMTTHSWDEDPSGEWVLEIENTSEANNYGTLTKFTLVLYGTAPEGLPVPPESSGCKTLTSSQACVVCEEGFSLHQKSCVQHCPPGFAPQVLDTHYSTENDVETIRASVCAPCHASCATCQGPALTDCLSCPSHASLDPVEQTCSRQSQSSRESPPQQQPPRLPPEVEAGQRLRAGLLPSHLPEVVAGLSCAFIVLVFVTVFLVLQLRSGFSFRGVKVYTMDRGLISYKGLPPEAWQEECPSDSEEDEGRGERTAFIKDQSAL
Experiment: furin cleavage Z-score vs untreated control; higher = more cleavage, active = 3.5 or more, inactive = 1 or less, 8 variable residues between constant flanks
Settings: 7.5 min
Some of the results follow. How many sequences the whole screen found active is unknown.
property name: furin cleavage Z-score
Reply: number alone, nothing else.

Fill blank: measured furin cleavage Z-score of the sequence CASTPCSAHCAGNASASA [HC2580] is ____.
0.205

Fill blank: measured furin cleavage Z-score of the sequence CAADVVDGAGAGNASASA [CS8] is ____.
0.136

Fill blank: measured furin cleavage Z-score of the sequence CAVVCCSMSKAGNASASA [HC2094] is ____.
-0.242
